Provenance of the data: ChEMBL document CHEMBL1773061

target: Mitogen-activated protein kinase 14 (Homo sapiens, UniProt Q16539); assay: Inhibition of p38 alpha MAPK in human whole blood assessed as phosphorylation of ATF-2 by immunosorbent non-radioactive enzyme assay; type: tissue-based
Sequence (Q16539 whole entry): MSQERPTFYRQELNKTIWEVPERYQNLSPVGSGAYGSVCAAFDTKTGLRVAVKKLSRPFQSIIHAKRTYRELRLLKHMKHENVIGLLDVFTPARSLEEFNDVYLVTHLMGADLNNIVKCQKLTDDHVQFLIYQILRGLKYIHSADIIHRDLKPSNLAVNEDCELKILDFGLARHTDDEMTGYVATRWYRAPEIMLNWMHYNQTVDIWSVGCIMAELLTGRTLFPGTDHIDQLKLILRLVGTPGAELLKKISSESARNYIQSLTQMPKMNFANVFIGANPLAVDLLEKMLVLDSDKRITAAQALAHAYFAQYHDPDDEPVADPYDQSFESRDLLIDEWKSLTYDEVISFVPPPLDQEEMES
Assignment: determine reported pIC50 for the given compounds.
Here pIC50 is given on a logarithmic scale as minus log10 of the concentration in mol/L.

Challenge: Requested field: pIC50. Item: C[C@@H](Nc1cc(-c2[nH]c([S@+](C)[O-])nc2-c2ccc(F)cc2)ccn1)c1ccccc1
Response given: 6.70

Challenge: Moving on to CC(C)[C@@H](C)Nc1cc(-c2[nH]c([S@@+](C)[O-])nc2-c2ccc(F)cc2)ccn1
Response given: 7.51

Challenge: Moving on to C[C@@H](Nc1cc(-c2[nH]c([S+](C)[O-])nc2-c2ccc(F)cc2)ccn1)c1ccccc1 (mixture of isomers)
Response given: 6.68

Challenge: Moving on to CSc1nc(-c2ccnc(NC3CCCCC3)c2)c(-c2ccc(F)cc2)[nH]1
Response given: 7.57

Challenge: Moving on to CC(C)Nc1cc(-c2[nH]c([S@+](C)[O-])nc2-c2ccc(F)cc2)ccn1
Response given: 7.62

Challenge: Moving on to C[S+]([O-])c1nc(-c2ccc(F)cc2)c(-c2ccnc(NC3CCOCC3)c2)[nH]1 (racemic)
Response given: 7.92

Challenge: Moving on to CC(=O)Nc1cc(-c2c(-c3ccc(F)cc3)nc([S+](C)[O-])n2C)ccn1 (racemic)
Response given: 5.97

Challenge: Moving on to CC(C)[C@@H](C)Nc1cc(-c2nc([S@+](C)[O-])[nH]c2-c2ccc(F)cc2)ccn1
Response given: 7.44

Challenge: Moving on to C[S+]([O-])c1nc(-c2ccc(F)cc2)c(-c2ccnc(NC3CCCCC3)c2)[nH]1 (racemic)
Response given: 7.47

Challenge: Moving on to CSc1nc(-c2ccc(F)cc2)c(-c2ccnc(NC(C)C)c2)[nH]1
Response given: 8.70

Challenge: Moving on to CC(C)[C@H](C)Nc1cc(-c2[nH]c([S+](C)[O-])nc2-c2ccc(F)cc2)ccn1 (mixture of isomers)
Response given: 7.77

Challenge: Moving on to CC(=O)Nc1cc(-c2[nH]c([S@+](C)[O-])nc2-c2ccc(F)cc2)ccn1
Response given: 6.71

Challenge: Moving on to C[S@+]([O-])c1nc(-c2ccnc(NC(=O)Cc3ccc(F)cc3)c2)c(-c2ccc(F)cc2)[nH]1
Response given: 6.85

Challenge: Moving on to CC(=O)Nc1cc(-c2c(-c3ccc(F)cc3)nc([S@+](C)[O-])n2C)ccn1
Response given: 5.90

Challenge: Moving on to CC(C)Nc1cc(-c2nc([S@+]([O-])C(C)C)[nH]c2-c2ccc(F)cc2)ccn1
Response given: 8.40

Challenge: Moving on to C[S@+]([O-])c1nc(-c2ccnc(NC3CCCCC3)c2)c(-c2ccc(F)cc2)[nH]1
Response given: 7.30

Challenge: Moving on to CC(C)[S@@+]([O-])c1nc(-c2ccc(F)cc2)c(-c2ccnc(NC3CCCCC3)c2)[nH]1
Response given: 7.96

----------
target: Mitogen-activated protein kinase 14 (Homo sapiens); experiment: Inhibition of p38 alpha MAPK in human whole blood assessed as phosphorylation of ATF-2 by immunosorbent non-radioactive enzyme assay relative to SB203580; type: tissue-based
Assignment: determine reported Ratio IC50 for the given molecules.
Response field accepts a number only; no unit should be typed.

Challenge: Requested field: Ratio IC50. Item: CC(C)[C@@H](C)Nc1cc(-c2[nH]c([S@@+](C)[O-])nc2-c2ccc(F)cc2)ccn1
Response given: 2.32

Challenge: Moving on to CC(C)Nc1cc(-c2[nH]c([S+]([O-])C(C)C)nc2-c2ccc(F)cc2)ccn1 (racemic)
Response given: 5

Challenge: Moving on to C[S@@+]([O-])c1nc(-c2ccc(F)cc2)c(-c2ccnc(NC3CCOCC3)c2)[nH]1
Response given: 4.45

Challenge: Moving on to C[S@+]([O-])c1nc(-c2ccc(F)cc2)c(-c2ccnc(NC(=O)Cc3ccc(F)cc3)c2)[nH]1
Response given: 0.55

----------
target: Mitogen-activated protein kinase 14 (Homo sapiens, UniProt Q16539); assay: Inhibition of p38 alpha MAPK in human whole blood assessed as suppression of LPS-induced TNF-alpha release by immunosorbent non-radioactive enzyme assay; format: tissue-based
Hi! Could you tag entries with IC50 below 800 nM as TRUE, and those at or above as FALSE? Much appreciated.

Challenge: Consider C[S+]([O-])c1nc(-c2ccc(F)cc2)c(-c2ccnc(NC(=O)Cc3ccc(F)cc3)c2)[nH]1 (racemic) . Does its IC50 lie strictly below 800 nM?
Response given: FALSE

Challenge: Moving on to CC(C)Nc1cc(-c2[nH]c([S+]([O-])C(C)C)nc2-c2ccc(F)cc2)ccn1 (racemic)
Response given: TRUE

Challenge: Moving on to CSc1nc(-c2ccc(F)cc2)c(-c2ccnc(NC(C)C)c2)[nH]1
Response given: TRUE

Challenge: Moving on to CC(C)Nc1cc(-c2[nH]c([S@+](C)[O-])nc2-c2ccc(F)cc2)ccn1
Response given: FALSE

Challenge: Moving on to C[C@H](Nc1cc(-c2[nH]c([S+](C)[O-])nc2-c2ccc(F)cc2)ccn1)c1ccccc1 (mixture of isomers)
Response given: FALSE

Challenge: Moving on to C[S@+]([O-])c1nc(-c2ccnc(NC3CCOCC3)c2)c(-c2ccc(F)cc2)[nH]1
Response given: FALSE

Challenge: Moving on to CC(C)[C@@H](C)Nc1cc(-c2nc([S@+](C)[O-])[nH]c2-c2ccc(F)cc2)ccn1
Response given: TRUE

Challenge: Moving on to C[S+]([O-])c1nc(-c2ccc(F)cc2)c(-c2ccnc(NC3CCOCC3)c2)[nH]1 (racemic)
Response given: TRUE

----------
Assignment: determine reported Ratio IC50 for the given compounds.
biological target: Mitogen-activated protein kinase 14 (Homo sapiens, UniProt Q16539); assay: Inhibition of p38 alpha MAPK in human whole blood assessed as suppression of LPS-induced TNF-alpha release by immunosorbent non-radioactive enzyme assay relative to SB203580; assay type: tissue-based
Response field accepts a number only; no unit should be typed.

Challenge: Requested field: Ratio IC50. Item: CC(C)Nc1cc(-c2[nH]c(SC(C)C)nc2-c2ccc(F)cc2)ccn1
Response given: 19.4

Challenge: Moving on to C[S@@+]([O-])c1nc(-c2ccc(F)cc2)c(-c2ccnc(NC3CCCCC3)c2)[nH]1
Response given: 3.09

Challenge: Moving on to C[S+]([O-])c1nc(-c2ccc(F)cc2)c(-c2ccnc(NC(=O)Cc3ccc(F)cc3)c2)[nH]1 (racemic)
Response given: 0.31

Challenge: Moving on to CSc1nc(-c2ccc(F)cc2)c(-c2ccnc(NC(=O)Cc3ccc(F)cc3)c2)[nH]1
Response given: 0.66

Challenge: Moving on to CC(C)[S@+]([O-])c1nc(-c2ccc(F)cc2)c(-c2ccnc(NC3CCCCC3)c2)[nH]1
Response given: 5.62

Challenge: Moving on to CC(C)Nc1cc(-c2[nH]c([S+](C)[O-])nc2-c2ccc(F)cc2)ccn1 (racemic)
Response given: 2.62

Challenge: Moving on to CC(C)Nc1cc(-c2[nH]c([S@+]([O-])C(C)C)nc2-c2ccc(F)cc2)ccn1
Response given: 4.24

Challenge: Moving on to CC(C)[C@H](C)Nc1cc(-c2[nH]c([S@+](C)[O-])nc2-c2ccc(F)cc2)ccn1
Response given: 6.8

Challenge: Moving on to CC(C)[C@@H](C)Nc1cc(-c2[nH]c([S@+](C)[O-])nc2-c2ccc(F)cc2)ccn1
Response given: 2.07

----------
molecular target: Mitogen-activated protein kinase 14 (Homo sapiens, UniProt Q16539); assay: Inhibition of p38 alpha MAPK in human whole blood assessed as phosphorylation of ATF-2 by immunosorbent non-radioactive enzyme assay; format: tissue-based
Hi! Could you tag entries with IC50 below 40 nM as Yes, and those at or above as No? Much appreciated.

Challenge: Consider C[C@H](Nc1cc(-c2nc([S@+](C)[O-])[nH]c2-c2ccc(F)cc2)ccn1)c1ccccc1 . Does its IC50 lie strictly below 40 nM?
Response given: No

Challenge: Moving on to CC(C)Nc1cc(-c2nc([S@@+](C)[O-])[nH]c2-c2ccc(F)cc2)ccn1
Response given: Yes

Challenge: Moving on to CC(C)Nc1cc(-c2nc([S@@+]([O-])C(C)C)[nH]c2-c2ccc(F)cc2)ccn1
Response given: Yes

Challenge: Moving on to CC(C)[S+]([O-])c1nc(-c2ccc(F)cc2)c(-c2ccnc(NC3CCCCC3)c2)[nH]1 (racemic)
Response given: Yes

Challenge: Moving on to CC(C)[C@H](C)Nc1cc(-c2nc([S@@+](C)[O-])[nH]c2-c2ccc(F)cc2)ccn1
Response given: Yes

Challenge: Moving on to CC(=O)Nc1cc(-c2[nH]c([S+](C)[O-])nc2-c2ccc(F)cc2)ccn1 (racemic)
Response given: No

Challenge: Moving on to C[C@H](Nc1cc(-c2[nH]c([S@@+](C)[O-])nc2-c2ccc(F)cc2)ccn1)c1ccccc1
Response given: Yes

Challenge: Moving on to C[C@@H](Nc1cc(-c2nc([S@@+](C)[O-])[nH]c2-c2ccc(F)cc2)ccn1)c1ccccc1
Response given: No

Challenge: Moving on to CC(C)[S@+]([O-])c1nc(-c2ccnc(NC3CCCCC3)c2)c(-c2ccc(F)cc2)[nH]1
Response given: Yes

Challenge: Moving on to CC(C)[C@@H](C)Nc1cc(-c2[nH]c([S+](C)[O-])nc2-c2ccc(F)cc2)ccn1 (mixture of isomers)
Response given: No

Challenge: Moving on to C[C@H](Nc1cc(-c2[nH]c([S+](C)[O-])nc2-c2ccc(F)cc2)ccn1)c1ccccc1 (mixture of isomers)
Response given: No

Challenge: Moving on to CC(C)Sc1nc(-c2ccnc(NC3CCCCC3)c2)c(-c2ccc(F)cc2)[nH]1
Response given: Yes

Challenge: Moving on to CC(C)Nc1cc(-c2[nH]c([S+](C)[O-])nc2-c2ccc(F)cc2)ccn1 (racemic)
Response given: Yes

Challenge: Moving on to CC(C)Nc1cc(-c2[nH]c(SC(C)C)nc2-c2ccc(F)cc2)ccn1
Response given: Yes

Challenge: Moving on to CC(=O)Nc1cc(-c2c(-c3ccc(F)cc3)nc([S@@+](C)[O-])n2C)ccn1
Response given: No

Challenge: Moving on to CC(C)[C@H](C)Nc1cc(-c2[nH]c([S@+](C)[O-])nc2-c2ccc(F)cc2)ccn1
Response given: Yes

Challenge: Moving on to C[S@@+]([O-])c1nc(-c2ccc(F)cc2)c(-c2ccnc(NC3CCCCC3)c2)[nH]1
Response given: Yes
